The values you see were collected from ChEMBL document CHEMBL1135421.

# TESTED_TARGET: Alpha-1A adrenergic receptor (Homo sapiens, UniProt P35348)
# Sequence (P35348 whole entry): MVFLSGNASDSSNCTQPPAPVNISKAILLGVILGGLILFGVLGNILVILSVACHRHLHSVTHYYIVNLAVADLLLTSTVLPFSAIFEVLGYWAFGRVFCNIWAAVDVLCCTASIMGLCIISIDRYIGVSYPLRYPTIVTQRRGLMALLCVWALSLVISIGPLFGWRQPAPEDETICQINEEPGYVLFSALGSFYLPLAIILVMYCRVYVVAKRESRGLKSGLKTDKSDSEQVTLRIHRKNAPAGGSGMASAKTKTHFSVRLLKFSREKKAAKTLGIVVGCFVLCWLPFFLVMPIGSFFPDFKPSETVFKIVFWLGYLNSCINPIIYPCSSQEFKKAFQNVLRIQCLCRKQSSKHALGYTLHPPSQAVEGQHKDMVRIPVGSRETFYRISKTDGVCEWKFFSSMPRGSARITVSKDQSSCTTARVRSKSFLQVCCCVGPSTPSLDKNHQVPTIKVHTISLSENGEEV
Give log10(Ki) for every item shown.
Recall that a logarithmic scale is used here: each number is log10 of Ki in nM.

Missing value: log10(Ki), Alpha-1A adrenergic receptor (Homo sapiens, UniProt P35348), entry `CC(C)S(=O)(=O)c1ccccc1NCC1=NCCN1` . Fill in?
3.43

Next up: C[S+]([O-])c1ccccc1NCC1=NCCN1 (stereo not given)
3.11

Next up: `CS(=O)(=O)c1cc(F)ccc1NCC1=NCCN1`
2.82

Next up: `CS(=O)(=O)c1c(F)cccc1NCC1=NCCN1`
2.74

Next up: `CSc1ccc(Cl)cc1NCC1=NCCN1`
1.27

###

# TESTED_TARGET: UniProt:P35368
# Sequence (P35368 whole entry): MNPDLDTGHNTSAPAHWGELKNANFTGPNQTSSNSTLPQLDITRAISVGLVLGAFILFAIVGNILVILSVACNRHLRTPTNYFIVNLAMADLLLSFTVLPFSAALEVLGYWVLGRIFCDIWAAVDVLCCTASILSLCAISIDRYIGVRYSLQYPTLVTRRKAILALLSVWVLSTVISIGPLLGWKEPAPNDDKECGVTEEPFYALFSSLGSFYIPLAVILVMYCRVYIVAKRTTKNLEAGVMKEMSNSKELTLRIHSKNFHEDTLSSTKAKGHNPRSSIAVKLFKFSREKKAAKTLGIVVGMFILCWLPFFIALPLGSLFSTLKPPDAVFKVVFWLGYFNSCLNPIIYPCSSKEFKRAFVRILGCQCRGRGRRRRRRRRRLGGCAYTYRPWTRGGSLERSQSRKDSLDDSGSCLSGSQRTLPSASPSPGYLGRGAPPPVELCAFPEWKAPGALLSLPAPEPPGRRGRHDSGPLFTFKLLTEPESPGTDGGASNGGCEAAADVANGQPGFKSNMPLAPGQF
# ASSAY_DETAILS: Agonist potency at alpha-1b adrenoceptors assayed in rat-1 fibroblasts expressing human alpha-1b
# Assay type: functional
VALUE_TYPE: EC50 (nM)
I only need the number, in nM, no unit after it.

Query: EC50; subject: `CSc1ccccc1NCC1=NCCN1`
2.19

###

# TESTED_TARGET: Alpha-1A adrenergic receptor (Homo sapiens)
# ASSAY_DETAILS: Agonist potency at Alpha-1 adrenergic receptor assayed in rat-1 fibroblasts expressing human Alpha-1 adrenergic receptor
# Assay type: functional
VALUE_TYPE: EC50 (nM)
I only need the number, in nM, no unit after it.

Query: EC50; subject: `CS(=O)(=O)c1cc(F)ccc1NCC1=NCCN1`
437

###

# TESTED_TARGET: Alpha-1A adrenergic receptor (Homo sapiens, UniProt P35348)
# Sequence (P35348 whole entry): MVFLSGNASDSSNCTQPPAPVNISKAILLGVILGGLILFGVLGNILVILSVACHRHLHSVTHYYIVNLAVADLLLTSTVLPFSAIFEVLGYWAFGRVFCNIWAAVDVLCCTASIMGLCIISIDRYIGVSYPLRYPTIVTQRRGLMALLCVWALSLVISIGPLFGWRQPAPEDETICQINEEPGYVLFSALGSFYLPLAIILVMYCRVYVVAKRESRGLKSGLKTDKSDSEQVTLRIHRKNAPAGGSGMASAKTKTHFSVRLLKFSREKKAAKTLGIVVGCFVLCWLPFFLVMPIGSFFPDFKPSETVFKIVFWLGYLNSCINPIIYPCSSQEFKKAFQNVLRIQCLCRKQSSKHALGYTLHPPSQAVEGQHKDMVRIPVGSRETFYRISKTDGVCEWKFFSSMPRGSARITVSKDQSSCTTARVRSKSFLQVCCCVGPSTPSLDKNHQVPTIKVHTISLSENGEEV
# ASSAY_DETAILS: Agonist potency at Alpha-1A adrenoceptors assayed in rat-1 fibroblasts expressing human Alpha-1A
# Format: functional
VALUE_TYPE: pEC50
Conceptually, pEC50 converts a concentration in mol/L into minus its log10.

Query: pEC50; subject: `CSc1ccccc1NCC1=NCCN1`
8.34
